For each record, write down the corresponding remaining activity at 1 µM.
# system under test: RIP2 recombinant protein (Homo sapiens, UniProt O43353)
# Sequence (O43353 whole entry): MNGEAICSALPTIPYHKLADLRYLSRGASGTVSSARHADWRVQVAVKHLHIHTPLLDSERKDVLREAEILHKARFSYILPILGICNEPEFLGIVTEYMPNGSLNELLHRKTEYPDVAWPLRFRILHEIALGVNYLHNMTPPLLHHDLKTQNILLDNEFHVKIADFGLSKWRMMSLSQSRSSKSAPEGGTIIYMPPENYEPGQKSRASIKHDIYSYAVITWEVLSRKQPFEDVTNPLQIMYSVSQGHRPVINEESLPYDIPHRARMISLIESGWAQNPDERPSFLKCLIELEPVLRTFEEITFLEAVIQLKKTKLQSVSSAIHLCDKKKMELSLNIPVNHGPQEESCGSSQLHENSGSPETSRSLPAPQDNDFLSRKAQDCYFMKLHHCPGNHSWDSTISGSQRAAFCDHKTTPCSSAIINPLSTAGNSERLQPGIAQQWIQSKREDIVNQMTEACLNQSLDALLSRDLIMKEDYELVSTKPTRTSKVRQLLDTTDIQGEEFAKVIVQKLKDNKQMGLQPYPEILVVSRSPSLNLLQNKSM
# assay protocol: radiometric protein kinase assay (33PanQinase Activity Assay), in vitro peptide-based kinase assay
# Assay type: biochemical
# run conditions: 1 h; compound at 1 μM

Input: Would you mind telling me what remaining activity at 1 µM value was observed for `O=C1CCNc2ccn3ncc(c3n2)-c2cc(F)cc(c2)OCCN1` ?
Output: < 50%

Input: Dear colleague, I am looking for the recorded remaining activity at 1 µM of the following molecule: CC1CNc2ccn3ncc(c3n2)-c2cccc(c2)OCC(=O)N1 (stereo not drawn)
Output: < 50%

Input: remaining activity at 1 µM lookup needed for `CCCCN1CCNc2ccn3ncc(c3n2)-c2cc(F)cc(c2)OCC1` , thanks.
Output: < 50%
